Data credit: ChEMBL document CHEMBL3988442

Tested on: Wolbachia pipientis
Test: Anti-Wolbachia Cell-Based Screen
Assay type: functional
Design: scale not given: in the data most compounds retested in dose-response had high values
Conditions: 5 µM
In all, about 48,000 compounds went through this assay and about 13,000 (27%) showed an effect of 50% or more. The list shows a part of the results.
propertyLabel: Percent Effect (%)
Answers are plain numbers, in %.

1. Cc1ncsc1C(=O)NC1CCN(CCC(N)=O)CC1 | -6.823
2. O=C(c1csc(-c2nnc[nH]2)n1)N1CCCCC1Cn1cccn1 (centres undefined) | 114.8
3. CCS(=O)(=O)N1C[C@@H]2CN(Cc3cnn(C)c3)CCO[C@@H]2C1.O=C(O)C(F)(F)F | 4.441
4. COCCCn1ccc(NC2CCOCC2)n1 | 12.54
5. Cc1nn(C)c(C)c1C1CCCN1CCOc1cccc(C#N)c1 (centres undefined) | -3.583
6. Cc1ccc(Cl)cc1N1CCC(CNC(=O)CC(F)(F)F)C1 (centres undefined) | -9.569
7. Cc1nc(CN2CCO[C@H]3CN(C(=O)c4cccn4C)C[C@H]32)cs1 | 4.285
8. Cc1ccc(-c2ccnc(N3CCC4(CC3)CNC(=O)O4)n2)c(C)n1 | 5.789
9. O=C(NCCCN1CCOCC1)C(OC1CCCC1)c1ccccc1 (centres undefined) | -5.979
10. CC(Cn1cccn1)NC(=O)N(C)Cc1ccc(Cl)s1 (centres undefined) | -9.644

Could you tell me Percent Effect for each of these compounds? They are listed below.
1. O=C(NCCCN1CCCC1=O)c1ccc(-n2ccc3ccccc32)s1
2. O=C(NCCCN1CCOCC1)c1ccc(-n2ccc3ccccc32)s1
3. CN(C)c1nc2c(c(N3CCCC4(CC3)CNC(=O)O4)n1)CCCC2 (centres undefined)
4. c1cnn(CC2CN(c3ncnc4c3CCC4)CCO2)c1 (centres undefined)
5. COCCCn1ccc(NC2CCSCC2)n1

// result
114.9
91.37
98.47
-17.69
-2.987

* * *

Please provide measured Percent Effect for the entries that follow.
Tested on: Wolbachia pipientis
Experiment: Anti-Wolbachia Cell-Based Screen
Type: functional
Set-up: scale not given: in the data most compounds retested in dose-response had high values
Conditions: 5 µM
Out of some 48,000 compounds screened, about 13,000 (27%) showed an effect of 50% or more. Some of the results follow.
Answer format: value, then unit.

Could you tell me Percent Effect for each of these molecules? They are listed below.
1. CN1CCC(C(=O)NCc2nncn2-c2ccccc2)CC1=O (stereo not drawn)
2. NC[C@H]1CC[C@H](C(NC(=O)c2cccc(F)c2)c2ccccn2)CC1 (stereo partly drawn)
3. CNc1nc2c(s1)C(=O)CN(C(=O)NCc1ccccc1)C2
4. Cc1cc(C)n(CC2CN(CC(=O)N3CCC3)CCO2)n1 (stereo not drawn)

// result
1: -4.452%; 2: 1.736%; 3: -1.017%; 4: 107.3%

Could you tell me Percent Effect for each of these molecules? They are listed below.
1. CCOCCN1CCN(c2ncccc2C#N)CC1CC (stereo not drawn)
2. CN(C1CCCCC1)S(=O)(=O)NC1CCN(c2ncccn2)CC1
3. O=C1NCCN2CCN(C(=O)NCCc3ccccc3)CC12 (stereo not drawn)
4. COc1cc(F)c(C(C)NC(=O)c2cccnc2C)cc1OC (stereo not drawn)

// result
1: 98.03%; 2: -8.607%; 3: -9.412%; 4: -13.32%

* * *

Please provide measured Percent Effect for the entries that follow.
Tested on: Wolbachia pipientis
Test: Anti-Wolbachia Cell-Based Screen
Type: functional
Parameters: scale not given: in the data most compounds retested in dose-response had high values
Settings: 5 µM
About 13,000 (27%) of roughly 48,000 compounds showed an effect of 50% or more. This is one part of the list.
Give bare numbers, in %.

1. Cc1nc(CC2CCCN(Cc3nc4ccccc4c(=O)[nH]3)C2)no1 (configuration not stated) | -3.308
2. CN(Cc1ccco1)Cc1ccccc1CNC(=O)c1cnccn1 | 7.808
3. NC(=O)C1CCN(CCc2ccc(NCc3ccsc3)cc2)CC1 | -14.27
4. NC(=O)CN1CCC(NC(=O)N2CCCC2c2ccncc2)CC1 (configuration not stated) | -10.76

Could you tell me Percent Effect for each of these molecules? They are listed below.
1. CN(CCOc1cccc(CNC(=O)C2CC2)c1)C1CCOCC1
2. COCCn1c2c(ccc1=O)CCN(C(=O)CC1CC1)CC2
3. CCC1=N[C@@]2(CC[C@@H]3CN(S(C)(=O)=O)C[C@@H]32)C(=O)N1CC(C)C

// result
[-18.9, 117, -16.48]

* * *

Please provide measured Percent Effect for the entries that follow.
Tested on: Wolbachia pipientis
Assay: Anti-Wolbachia Cell-Based Screen
Type: functional
Set-up: scale not given: in the data most compounds retested in dose-response had high values
Conditions: 5 µM
Screen size: about 48,000 compounds; about 13,000 (27%) showed an effect of 50% or more. The list shows a part of the results.
Answers are plain numbers, in %.

Here are 3 molecules together with their reported answers.
1) CCCN(Cc1cnn(C)c1)S(=O)(=O)c1ccc(F)c(C#N)c1 | 88.2
2) COc1c(CNCc2ccc(Cn3cccn3)cc2)c(C)nn1C | -21.67
3) COc1ncc(-c2ccc(O)cc2)c(OC)n1 | 83.6

Could you tell me Percent Effect for each of these molecules? They are listed below.
1. COC1CN(C(=O)CC(C)(C)C)CCC(=O)N(C)c2ccccc21 (centres undefined)
2. Cc1ccccc1N1CCN(C2CCCN(C(=O)CCC(C)C)C2)CC1 (centres undefined)
3. COc1ncc(NC(=O)c2ccco2)c(OC)n1
4. COc1ncccc1-c1cc(C(N)=O)ccn1

// result
1: 105.9; 2: -1.858; 3: 4.719; 4: 12.1

Could you tell me Percent Effect for each of these molecules? They are listed below.
1. CC1CCCN(c2ccccc2OCC(=O)N2CCOCC2)C1 (centres undefined)
2. Cc1nc(C2CCCN(C(=O)c3csc(C)n3)C2)no1 (centres undefined)
3. CCCN(Cc1cnc2ccccc2n1)Cc1ccccc1OC
4. CCN(Cc1cnn(C)c1)S(=O)(=O)c1ccc(NC(=O)C(C)(C)C)cc1
5. CN1CCC(N2CCC(C(=O)N(C)C)CC2)CC1.O=C(O)C(F)(F)F.O=C(O)C(F)(F)F

// result
[-4.736, -14.77, -2.298, -17.75, 107.5]

* * *

System: Wolbachia pipientis
Experiment: Anti-Wolbachia Cell-Based Screen
Assay type: functional
Set-up: scale not given: in the data most compounds retested in dose-response had high values
Details: 5 µM
The whole screen tested about 48,000 compounds, of which about 13,000 (27%) showed an effect of 50% or more. Some of the results follow.
propertyLabel: Percent Effect (%)
Give bare numbers, in %.

1. CC(C)c1nnc2n1CCN(C(=O)c1ccc(CN(C)C)cc1)C2 | -8.921
2. CC(C)c1nnc2n1CCN(C(=O)CN(C)Cc1ccccc1)C2 | 95.98
3. CCc1nnc2n1CCN(C(=O)CN(C)Cc1ccccc1)C2 | -3.292

Could you tell me Percent Effect for each of these compounds? They are listed below.
1. CNc1ncc(C(=O)N2CCC(c3ccccc3C(=O)O)C2)cn1 (stereo not drawn)
2. CCc1cnc(N2CC[C@@H]3CN(C(C)=O)CCO[C@@H]3C2)nc1
3. Cc1nc(C(=O)N2CCN(C(=O)N(C)C)[C@@H]3CS(=O)(=O)C[C@@H]32)cs1
4. COc1ccc(CCCC(=O)N2CCCC(n3cncn3)C2)cc1 (stereo not drawn)

// result
1. 4.233
2. 6.886
3. -0.3934
4. -28.74

// query What does the record list as Percent Effect for COc1cccc2c1OCC(CNC(=O)COCC(F)(F)C(F)F)C2 (stereo not drawn) ?
// result -0.4399

* * *

Please provide measured Percent Effect for the entries that follow.
Tested on: Wolbachia pipientis
Test: Anti-Wolbachia Cell-Based Screen
Type: functional
Parameters: scale not given: in the data most compounds retested in dose-response had high values
Settings: 5 µM
Among all 48,000 compounds or so, about 13,000 (27%) showed an effect of 50% or more. This is one part of the list.
Answer format: value, then unit.

Here are 10 compounds together with their reported answers.
1. Cc1nc(CN)cc(N2CCC(O)(c3ccc(Cl)cc3)CC2)n1 | -14.21%
2. COc1nn(C)c2c1CCCN(S(=O)(=O)c1cccc(C)c1)C2 | 0.0765%
3. Cc1noc(COCC(=O)N2CCCCC2c2nccs2)n1 (stereo not drawn) | -17.81%
4. Cc1ncc(CN2CC[C@@](C)(O)[C@H](Oc3cccc(F)c3)C2)cn1 | 104.1%
5. CCOc1cc(C(=O)N2CC=C(c3ccc(O)cc3)CC2)ccn1 | -12.82%
6. O=C(Cc1cccs1)N1CCC2(CC1)COCCN2CC1CC1.O=C(O)C(F)(F)F | -7.1%
7. O=C(O)C(F)(F)F.O=C(c1ccncc1)N1CC[C@H]2[C@H]1CCN2S(=O)(=O)C1CC1 | -0.5443%
8. O=C1CCc2cc(S(=O)(=O)NC(=O)c3ccc4c(c3)COC4)ccc2N1 | -36.98%
9. Cc1ccc(N2CCCc3sc(C(=O)NCCC#N)nc32)nn1.O=C(O)C(F)(F)F | -4.317%
10. O=C(C1CCCO1)N1CCC2(CC1)COCCN2CC1CC1 (stereo not drawn) | 91.17%

Could you tell me Percent Effect for each of these compounds? They are listed below.
1. CN(CC(=O)N1CCCCC1c1nccs1)C1CC1 (stereo not drawn)
2. C[C@]1(O)CCN(Cc2nccs2)C[C@@H]1Oc1cccc(F)c1
3. CCOc1cc(C(=O)N2CCCC(c3nc(C)c(C)s3)C2)ccn1 (stereo not drawn)
4. CC(C)N1CCC(CC(=O)NC[C@H]2CCc3ccccc3O2)CC1
5. COc1ccc(CCNC(=O)CC(NC(N)=O)c2ccccc2)cc1 (stereo not drawn)
6. Cc1nn(C)c(C)c1C1CCCN1C(=O)c1ccc(NC2CC2)nc1 (stereo not drawn)
7. COc1c(C2CCCN2C(=O)c2ccc(O)nc2)c(C)nn1C (stereo not drawn)

// result
1. 114.2%
2. 121.8%
3. 118.9%
4. 10.1%
5. 5.015%
6. -8.845%
7. 97.38%

// query What does the record list as Percent Effect for O=C(NCC1CC1)c1cc2c(s1)CCN2c1ncccn1 ?
// result 107.3%
